Test system: Saccharomyces cerevisiae;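 note: PSI is a weighted mean of sequencing reads over stability bins, variants kept only with over 10 reads, mCherry proximal and sfGFP distal, peptide attached via GGGS linker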
Assay: protein stability index of tFT-peptide fusion (C-terminal peptide) (PSI (0-1 scale)); higher = more stable (slower turnover)
Settings: genetic background: wild type; temperature: 30 C
Assign t to entries whose protein stability index meets or exceeds 0.7; assign f to the rest.

>>> label_class("PGKRPTERLAPS")
"t"
>>> label_class("RLDFFIFSRWWI")
"t"
>>> label_class("FRAAGFLAGRYR")
"t"
>>> label_class("HSNGADTFSEGE")
"f"
>>> label_class("FMYSGIVAIPRG")
"f"
>>> label_class("TLCFRLGFLSYF")
"f"
>>> label_class("AAPAGAAKRWGT")
"f"
>>> label_class("KIGNDQNVEDRK")
"t"
>>> label_class("ATSPPGLLAQPA")
"f"
>>> label_class("GVWAVGGGGGGR")
"f"
